Source listed as paper PMC4504079.

biological target: Helicobacter pylori urease (HPU) (Helicobacter pylori, UniProt P69996)
Sequence (P69996 whole entry): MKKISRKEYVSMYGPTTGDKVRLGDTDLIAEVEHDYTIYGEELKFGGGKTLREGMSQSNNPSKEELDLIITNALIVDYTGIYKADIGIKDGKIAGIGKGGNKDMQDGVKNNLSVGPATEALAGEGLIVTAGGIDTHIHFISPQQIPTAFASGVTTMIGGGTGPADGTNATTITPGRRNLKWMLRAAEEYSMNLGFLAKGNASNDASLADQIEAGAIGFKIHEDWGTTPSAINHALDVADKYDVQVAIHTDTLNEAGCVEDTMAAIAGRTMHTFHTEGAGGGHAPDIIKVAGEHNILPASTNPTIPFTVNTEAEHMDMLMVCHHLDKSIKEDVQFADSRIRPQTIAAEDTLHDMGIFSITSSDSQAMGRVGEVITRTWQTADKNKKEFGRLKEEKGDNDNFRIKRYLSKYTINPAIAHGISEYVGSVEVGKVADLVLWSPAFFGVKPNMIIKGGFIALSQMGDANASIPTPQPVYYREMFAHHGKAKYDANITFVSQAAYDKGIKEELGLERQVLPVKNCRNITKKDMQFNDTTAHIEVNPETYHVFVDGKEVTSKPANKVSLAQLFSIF
readout.label: IC50 (mM)
Write down the numeric answer in mM and omit the unit.

## Task GET /values?readout=IC50&system=Helicobacter pylori urease (HPU) (Helicobacter pylori, UniProt P69996)&item= C=C1CC[C@@H]2[C@](C)(CO)[C@H](O)CC[C@@]2(C)[C@@H]1CC(C1=CCOC1=O)S(=O)(=O)O (stereo partly shown) [ASB, Andrographolide sodium bisulphite]
## Result 3.17

----------
biological target: UniProt:P07374
Sequence (P07374 whole entry): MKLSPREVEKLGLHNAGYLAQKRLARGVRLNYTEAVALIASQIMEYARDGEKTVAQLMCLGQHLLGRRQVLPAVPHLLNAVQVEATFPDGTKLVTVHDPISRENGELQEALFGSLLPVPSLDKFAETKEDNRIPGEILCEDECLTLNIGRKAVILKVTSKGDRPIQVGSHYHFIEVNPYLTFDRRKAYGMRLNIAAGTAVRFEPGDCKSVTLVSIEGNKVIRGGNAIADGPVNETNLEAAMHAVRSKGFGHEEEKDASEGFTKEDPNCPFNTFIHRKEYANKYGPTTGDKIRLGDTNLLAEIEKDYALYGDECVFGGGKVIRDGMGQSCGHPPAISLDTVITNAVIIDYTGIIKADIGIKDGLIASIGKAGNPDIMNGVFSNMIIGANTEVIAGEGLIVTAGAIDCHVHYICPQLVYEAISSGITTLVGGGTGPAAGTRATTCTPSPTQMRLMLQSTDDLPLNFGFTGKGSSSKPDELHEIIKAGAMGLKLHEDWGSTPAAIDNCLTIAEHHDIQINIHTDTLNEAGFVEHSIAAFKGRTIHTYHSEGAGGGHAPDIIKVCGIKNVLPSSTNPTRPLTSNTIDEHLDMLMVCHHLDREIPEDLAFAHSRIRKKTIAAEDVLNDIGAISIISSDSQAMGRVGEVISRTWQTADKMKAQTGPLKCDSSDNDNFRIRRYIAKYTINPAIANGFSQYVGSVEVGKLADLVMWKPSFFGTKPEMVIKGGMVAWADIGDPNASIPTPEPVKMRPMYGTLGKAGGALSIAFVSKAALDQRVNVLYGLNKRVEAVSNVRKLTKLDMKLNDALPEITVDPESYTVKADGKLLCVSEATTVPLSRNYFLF
readout.label: IC50

## Task Looking for the measured IC50 of C=C1CC[C@@H]2[C@](C)(CO)[C@H](O)CC[C@@]2(C)[C@@H]1CC(C1=CCOC1=O)S(=O)(=O)O (stereo partly shown) [ASB, Andrographolide sodium bisulphite] , can you help?
## Result 3.28 mM
